For each of the compounds below, state its pIC50.
molecular target: His-GST-TVMV-hRIPK1(1-324) (Homo sapiens (Human), UniProt Q13546); test: RIPK1 HTRF Binding Assay; conditions: HTRF binding, 1 h at rt; read-out: RIPK1 (IC50)
Sequence (Q13546 1-324): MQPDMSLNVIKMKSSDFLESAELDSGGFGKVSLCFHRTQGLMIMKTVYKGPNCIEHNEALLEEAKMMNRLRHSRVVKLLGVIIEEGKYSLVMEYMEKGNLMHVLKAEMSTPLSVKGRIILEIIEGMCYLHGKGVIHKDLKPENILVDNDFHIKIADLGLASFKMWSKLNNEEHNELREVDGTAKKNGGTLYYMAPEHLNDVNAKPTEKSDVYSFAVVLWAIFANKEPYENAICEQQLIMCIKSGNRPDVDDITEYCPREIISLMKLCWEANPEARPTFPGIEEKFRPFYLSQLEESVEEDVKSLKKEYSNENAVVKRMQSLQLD
Give bare numbers, as −log10 of the molar value.

COc1ncc(-c2ccc3nc(NC(=O)C(C)(C)O)cn3n2)cc1C(=O)NCc1cccc(F)c1OCC1CC1
7.08
COc1nc(C)c(-c2ccc3nc(NC(C)=O)cn3n2)cc1C(=O)NCc1ccccc1OCC1CCCC1
8.40

## Task Retrieve pIC50 measured for COc1nc(C)c(-c2ccc3nc(NC(C)=O)cn3n2)cc1C(=O)NCc1ccc(F)cc1OCC1CC1 and print it.
## Result 8.52

The measurements presented in this section are drawn from patent US11440913B2.
